- System: NCI-H226 lung
- Test: NCI-60 one-dose screen, 48 h
- Test Parameters: 10 µM unless noted
This is part of a sample that, as a whole, favours compounds with a hit. Of some 83,000 tested, about 20% had one in any assay. Calls of active or inactive are those of the source. The calls were made as follows: active = growth percent below 10; inactive = the rest.
Possible outcomes: active, inactive

Compound: O=S(=O)(c1cccc(NC2=Nc3cccc4cccc2c34)c1)N1CCCC1
Classification: inactive

Compound: COc1cc(-c2nc3sccn3c2-c2ccnc(NCCNS(=O)(=O)c3ccc(F)cc3)n2)ccc1F
Classification: active

Compound: CCN(CC)CCCCCCNc1cc(OC)cc2cccnc12
Classification: inactive

Compound: CCC(C)C(N)C(=O)NNc1n[nH]c(=S)n1N (centres undefined)
Classification: inactive

Compound: CC(=O)OCC(=O)C1(O)C(C)CC2C3C=C(C)C4=Cc5c(cnn5-c5ccccc5)CC4(C)C3C(O)CC21C (centres undefined)
Classification: inactive

Compound: CCN1C(=O)N(CC)C2C1NN=c1s/c(=C3\C(=O)Nc4ccccc43)c(=O)n12 (centres undefined)
Classification: inactive

Compound: C(=N\Nc1ncc(-c2cc3cc4c(cc3o2)OCO4)s1)/c1c[nH]c2ccccc12
Classification: active

Compound: Cc1ccc(-c2c(Br)c(OC(=O)CO[C@@H]3C[C@H](C)CC[C@H]3C(C)C)c(-c3ccc(C)cc3C)c(Br)c2OC(=O)CO[C@H]2C[C@@H](C)CC[C@@H]2C(C)C)c(C)c1
Classification: inactive

Compound: CC(C)C1C2=C(NCCN1C(=O)Cc1ccccc1)C(C)(C)N(Cc1ccccc1)C2=O (centres undefined)
Classification: inactive

---

- Tested on: HOP-92 NSCLC
- Test: NCI-60 one-dose screen, 48 h (100 = growth as untreated, 0 = no growth, -100 = all killed)
- Test Parameters: 10 µM unless noted
About 83,000 compounds went through this panel and 20% of them were active in at least one assay; those are over-represented in the sample as a whole.
Decide using growth: a value greater than or equal to 60% is Y, a smaller one is N.

Compound: CC(=O)O[C@H]1CC[C@@]2(C)[C@@H](CC[C@@H]3[C@@H]2CC[C@@]2(C)[C@H]3CC[C@]2(O)C(C)=O)C1
Assay Target: HOP-92 NSCLC
Classification: Y
//
Compound: NC(=O)CN1CCN(c2ccccc2Cl)CC1
Assay Target: HOP-92 NSCLC
Classification: Y
//
Compound: O=C(Nc1nc2ccc(S(=O)(=O)Nc3ccc(C4(C(F)(F)F)CC4)cc3)cc2[nH]1)c1cnccn1
Assay Target: HOP-92 NSCLC
Classification: N
//
Compound: COc1ccccc1Nc1cc(O)c2c(=O)cc(-c3ccccc3)oc2c1
Assay Target: HOP-92 NSCLC
Classification: Y
//
Compound: COc1ccccc1C(C[N+](=O)[O-])c1c(-c2ccccc2)[nH]c2cc(C)ccc12 (centres undefined)
Assay Target: HOP-92 NSCLC
Classification: Y
//
Compound: C=C1C(=O)O[C@H]2[C@H]1CC/C(COC(=O)CCCCCC(=O)OC/C1=C/CC[C@@]3(C)O[C@H]3[C@H]3OC(=O)C(=C)[C@@H]3CC1)=C\CC[C@@]1(C)O[C@@H]21
Assay Target: HOP-92 NSCLC
Classification: N
//
Compound: CN1CCCC1=Nc1ccccc1
Assay Target: HOP-92 NSCLC
Classification: Y
//
Compound: CC(O)/C=C/C=C/C(O)CC/C=C/C(=O)NCC(C)(C)O (centres undefined)
Assay Target: HOP-92 NSCLC
Classification: Y
//
Compound: CC(=O)c1c(-c2ccc(OC(F)(F)F)cc2)nc2ccccn12
Assay Target: HOP-92 NSCLC
Classification: Y

---

- System: SK-MEL-28 melanoma
- Test: NCI-60 one-dose screen, 48 h
- Test Parameters: 10 µM unless noted
Compounds without any hit were thinned out: in the full panel of roughly 83,000, 20% have a hit. The source made the active and inactive calls. The calls were made as follows: active = growth percent below 10; inactive = the rest.
Possible outcomes: YES (active), NO (inactive)

Molecule: COc1ccc(C(O)c2cc3c(N)c(C(=O)Nc4ccccc4)sc3nc2C)cc1 (stereo not given)
Assay Target: SK-MEL-28 melanoma
Classification: NO
//
Molecule: Clc1cc(Cl)cc(N2N=C(c3cccc(Nc4ccncc4)c3)CC2c2ccc(Br)cc2)c1 (stereo not given)
Assay Target: SK-MEL-28 melanoma
Classification: YES
//
Molecule: Nc1ccccc1NC(=O)c1ccc(CN2CCC/C(=C\c3cccc(Cl)c3)C2=O)cc1
Assay Target: SK-MEL-28 melanoma
Classification: NO
//
Molecule: Clc1ccc(N2N=C(c3cccc(Nc4ccncc4)c3)CC2c2ccc(Br)cc2)cc1 (stereo not given)
Assay Target: SK-MEL-28 melanoma
Classification: YES
//
Molecule: CC1NC(=S)NC(=O)/C1=C/c1cc(=O)oc2c1ccc1ccccc12 (stereo not given)
Assay Target: SK-MEL-28 melanoma
Classification: NO

---

- System: OVCAR-8 ovarian
- Test: NCI-60 one-dose screen, 48 h (100 = growth as untreated, 0 = no growth, -100 = all killed)
- Test Parameters: 10 µM unless noted
The panel holds about 83,000 compounds, 20% with a hit somewhere; the sample as a whole holds those more often. Calls of active or inactive are those of the source. How the source made its calls: active means growth percent below 10; inactive means the rest.
Observation Type: growth

Compound: CC1(C)CN(c2cnc(C(=O)Nc3cc(F)cc4cccnc34)cn2)CCN1
Observed Value: 96.5% (inactive)
--
Compound: O=C(CSc1nc2sc3c(c2c(=O)n1Cc1ccccc1)CCCC3)N1CCN(c2ccccc2)CC1
Observed Value: 97.9% (inactive)
--
Compound: COC(=O)C1NC(=S)N(c2ccc(Cl)cc2)C1/C=C/c1ccccc1 (stereo unspecified)
Observed Value: 101% (inactive)
--
Compound: Fc1ccc2nc3c(cc2c1)CSc1nnc(-c2ccc[nH]c2=S)n1N3
Observed Value: 105% (inactive)
--
Compound: CC1(C)CC[C@]2(C(=O)NCC#CCN3CCOCC3)CC[C@]3(C)C(=CC[C@@H]4[C@@]5(C)Cc6c([nH]c7ccccc67)C(C)(C)[C@@H]5CC[C@]43C)[C@@H]2C1
Observed Value: 90.8% (inactive)
--
Compound: CCCCCCCCCCCCCCCCCCOc1ccccc1N
Observed Value: 70.9% (inactive)
--
Compound: O=C(Nc1ccc2cc3ccc(NC(=O)N4CCCCCC4)cc3nc2c1)N1CCCCCC1
Observed Value: -28.3% (active)
--
Compound: CCCCCCCCCCCC(=O)C(CCCCCCCCCC)C(=O)Nc1ccccc1 (stereo unspecified)
Observed Value: 103% (inactive)
--
Compound: BrC(Br)(Br)c1cnc2ccccc2n1
Observed Value: 45.4% (inactive)
--
Compound: COc1cccc(NC(=O)c2cccc(-c3cc(=O)c4c(OC)c(OC)c(OC)cc4o3)c2)c1
Observed Value: 47% (inactive)
--
Compound: CN(C)C(C(N)=O)c1ccc(Cl)cc1 (stereo unspecified)
Observed Value: 101% (inactive)
--
Compound: O=C(Nc1cccc(Cl)c1)c1cc(Cl)ccc1O
Observed Value: 9.51% (active)
--
Compound: O=C(OC(OC(=O)c1cc(Cl)cc(Cl)c1)c1cccc2ccccc12)c1ccccc1 (stereo unspecified)
Observed Value: 93.7% (inactive)
--
Compound: COc1cc(OC)cc(C2C3=C(COC3=O)Nc3cc(OC)ccc32)c1 (stereo unspecified)
Observed Value: 8.63% (active)
--
Compound: O=C(/C=C/c1ccc[nH]1)c1ccc(-n2ccc(C(F)(F)F)n2)cc1
Observed Value: 88% (inactive)
--
Compound: CN1C2CCC1CN(c1cnc(C(=O)Nc3cc(F)cc4cccnc34)cn1)C2
Observed Value: 54.4% (inactive)
--
Compound: CCOC(=O)c1c(C)nc2c(c1N)C(=O)C(=O)N2Cc1ccc(C(F)(F)F)cc1
Observed Value: 63.3% (inactive)
--
Compound: CCCNC(=O)Oc1ccc(/C(=C(\C)c2ccccc2)c2ccc(OCCN3CCCCC3)cc2)cc1
Observed Value: 75.3% (inactive)
--
Compound: CC(C)(C#N)N1CCN(c2ccccc2Cl)CC1
Observed Value: 93.9% (inactive)
--
Compound: CC(C)C1C2=C(NCCN1C(=O)Cc1ccccc1)C(C)(C)N(Cc1ccccc1)C2=O (stereo unspecified)
Observed Value: 100% (inactive)
--
Compound: NC(=O)CN1CCN(c2ccccc2Cl)CC1
Observed Value: 122% (inactive)
--
Compound: COc1cccc(CCC(=O)c2cc3c(N)c(C(=O)Nc4ccccc4)sc3nc2C)c1
Observed Value: 60.2% (inactive)
--
Compound: COc1cc(NCCCN(CC(C)C)C2CCCC2)c2ncccc2c1
Observed Value: 59.2% (inactive)
--
Compound: COc1ccc(C(O)c2cc3c(N)c(C(=O)Nc4ccccc4)sc3nc2C)cc1 (stereo unspecified)
Observed Value: 8.92% (active)
--
Compound: C=C(C)[C@@H]1CC[C@]2(C(=O)NCC(=O)OC)CC[C@]3(C)[C@H](CC[C@@H]4[C@@]5(C)Cc6c([nH]c7ccccc67)C(C)(C)[C@@H]5CC[C@]43C)[C@@H]12
Observed Value: 85.4% (inactive)
--
Compound: c1ccc(N2N=C(c3cccc(Nc4ccncc4)c3)CC2c2ccc3c(c2)OCO3)cc1 (stereo unspecified)
Observed Value: 21.7% (inactive)
--
Compound: COc1c(Cl)cc(Cl)c2ccc(C=C3C(=O)NC(=S)NC3=O)nc12
Observed Value: 109% (inactive)
--
Compound: COc1ccc(/C(C)=N/NC(=O)CSc2nc3ccccc3c(=O)n2Cc2ccc(S(N)(=O)=O)cc2)c(OC)c1
Observed Value: 100% (inactive)
--
Compound: COc1ccc(Cc2nc3cc(OC)c(OC)cc3c(=O)[nH]2)cc1
Observed Value: 73.5% (inactive)
--
Compound: COc1cc2nc(-c3ccc(C(F)(F)F)cc3)cc(OCCCN3CCCCC3)c2cc1OC
Observed Value: 52.4% (inactive)
--
Compound: Cc1[nH]c(C(=O)Nc2ccccc2OCc2cccc(C(=O)NCCN)c2)c(Cl)c1Cl
Observed Value: 37.9% (inactive)
--
Compound: Clc1ccc(N2N=C(c3cccc(Nc4ccncc4)c3)CC2c2ccc(Br)cc2)cc1 (stereo unspecified)
Observed Value: -18.7% (active)
--
Compound: CC(=O)c1c[nH]c2ccc(-c3ccnc(Nc4ccc(NC(=O)c5cccc(F)c5)c(CN5CCOCC5)c4)n3)cc12
Observed Value: 8.7% (active)
--
Compound: COc1ccc2c(/C=C3/C(=O)NC(=S)NC3C)cc(=O)oc2c1 (stereo unspecified)
Observed Value: 91.6% (inactive)
--
Compound: COc1cc(Nc2cc(O)c3c(=O)cc(-c4ccccc4)oc3c2)cc(OC)c1
Observed Value: 26.1% (inactive)
--
Compound: O=C(Nc1ccc(Nc2ncccn2)cc1)NC1C=c2ccccc2=CC1 (stereo unspecified)
Observed Value: 98.1% (inactive)
--
Compound: O=CNc1cc(Cl)cc(Cl)c1
Observed Value: 99.8% (inactive)
--
Compound: c1ccc(CCSc2ncnc3nc[nH]c23)cc1
Observed Value: 66.9% (inactive)
--
Compound: COc1ccc(C(=O)c2cc3c(N)c(C(=O)Nc4cccc(Cl)c4C)sc3nc2C)cc1
Observed Value: 5.92% (active)
--
Compound: N#C/C(=C\c1ccc(Br)cc1)n1nnc2cccc(F)c21
Observed Value: 8.42% (active)
--
Compound: O=C(O)C(/C=C/c1ccco1)=N\Nc1nc(-c2ccc(Cl)cc2)cs1
Observed Value: 36.6% (inactive)
